Molecular target: T1, DHX36 (RHAU), full-length (UniProt Q9H2U1 Q9H2U1:1-1008)
T1 sequence: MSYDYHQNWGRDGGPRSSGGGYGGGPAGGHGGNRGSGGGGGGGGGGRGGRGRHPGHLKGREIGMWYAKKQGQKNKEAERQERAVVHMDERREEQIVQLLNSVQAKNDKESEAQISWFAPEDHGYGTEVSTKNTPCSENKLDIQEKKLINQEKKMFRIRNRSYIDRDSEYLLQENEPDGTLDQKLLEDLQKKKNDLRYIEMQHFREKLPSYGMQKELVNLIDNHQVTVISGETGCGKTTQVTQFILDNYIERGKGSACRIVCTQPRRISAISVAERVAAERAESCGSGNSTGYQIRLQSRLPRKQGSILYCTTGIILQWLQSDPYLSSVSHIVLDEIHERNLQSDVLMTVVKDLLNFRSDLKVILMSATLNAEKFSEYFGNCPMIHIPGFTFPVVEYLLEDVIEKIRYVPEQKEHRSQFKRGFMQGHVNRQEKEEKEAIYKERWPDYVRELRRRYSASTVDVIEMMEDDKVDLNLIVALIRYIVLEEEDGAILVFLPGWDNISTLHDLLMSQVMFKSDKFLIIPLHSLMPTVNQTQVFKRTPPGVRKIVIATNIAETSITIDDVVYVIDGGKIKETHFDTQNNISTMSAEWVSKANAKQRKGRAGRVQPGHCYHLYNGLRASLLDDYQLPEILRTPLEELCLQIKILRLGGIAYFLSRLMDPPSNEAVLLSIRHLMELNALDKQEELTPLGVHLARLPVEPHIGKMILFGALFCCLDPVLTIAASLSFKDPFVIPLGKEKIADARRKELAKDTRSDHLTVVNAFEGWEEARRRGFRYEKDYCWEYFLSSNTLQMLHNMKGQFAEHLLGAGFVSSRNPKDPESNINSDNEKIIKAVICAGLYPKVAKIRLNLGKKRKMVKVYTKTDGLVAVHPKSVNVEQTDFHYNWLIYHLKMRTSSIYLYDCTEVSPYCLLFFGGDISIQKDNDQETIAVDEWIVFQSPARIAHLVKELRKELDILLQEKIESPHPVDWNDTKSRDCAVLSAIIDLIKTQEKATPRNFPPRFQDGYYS
Assay: MST; 25 mM Tris-HCl pH 7.5, 150 mM KCl, 1 mM MgCl2, 37 C
Settings: label: 3'-FAM; G4
pKd: −log10 of the molar value.

{"BINDER": "GGGUUGCGGAGGGUGGGCCU (ssRNA, 5'-hexynyl clicked to azide-modified AHPC) [FAM_rG4_A (hTERC rG4 WT-AHPC conjugate)]", "pKd": 7.10}
